system: HT29 colon; test: NCI tumour cell line growth inhibition, 48 h
measuredParameter: TGI

* CN(/N=C/c1cccc2cccnc12)c1ccccc1 | > 100 µM
* O=c1nc2oc3ccc4ccccc4c3cc-2s1 | > 100 µM
* C[C@H]1C[C@H]2[C@@H]3C(C)(C)O[C@]4(O)C(=O)[C@]5(O)[C@@H](C)CC[C@H]1[C@]25C(=O)[C@]34C | 70.3 µM
* COc1ccc(-n2c(=O)n(C)c(=O)n2-c2ccc(OC)cc2)cc1 | > 100 µM
* C=C1c2[nH]c3c([N+](=O)[O-])c(OC)ccc3c2CCN1C(C)=O | > 100 µM
* COc1cc2cc[n+]3c(C)c4cc(OC)c(OC)cc4c([O-])c3c2cc1OC | > 100 µM

* * *

Quick reference for TGI among some compounds
test system: SK-MEL-28 melanoma; test: NCI tumour cell line growth inhibition, 48 h
measuredParameter: TGI

- CCOC(=O)c1cnc2oc3ccc(O)cc3c2c1-c1ccccc1: > 100 µM
- O=C(c1cc(Cl)ccc1Cl)N1CCN(C(=O)c2cc(Cl)ccc2Cl)CC1: > 100 µM
- Cc1ccc(N2C(=O)C3C=CC(n4[nH]c(=O)n(Cc5ccccc5)c4=O)CC3C2=O)cc1 (configuration not stated): > 100 µM
- O=C(OCCN=c1c2ccccc2ccc2ccccc12)c1ccc([N+](=O)[O-])cc1: > 100 µM
- CCCOC(=O)N1CCN(/[N+]([O-])=N/Oc2ccc([N+](=O)[O-])cc2[N+](=O)[O-])CC1: 39.4 µM
- C/C(CC(=O)Nc1ccc(Cl)cc1)=N\NC(N)=S: > 100 µM
- COc1cc(C2c3cc4c(cc3OC(NNC(N)=O)C2C)OCO4)cc(OC)c1O (configuration not stated): > 100 µM
- COc1ccc(-n2c(=O)n(C)c(=O)n2-c2ccc(OC)cc2)cc1: > 100 µM
- Clc1nc(Cl)c2ncn(C/C=C/COc3cccc(OC/C=C/Cn4cnc5c(Cl)nc(Cl)nc54)c3)c2n1: > 100 µM
- O=c1oc2ccccc2cc1-c1cn2cc(Cl)ccc2n1: 17.9 µM
- Nc1ncnc2c1nnn2C1CCC(CP(=O)(O)O)C1 (configuration not stated): > 100 µM
- CC1=C(CO)C(=O)O[C@@H]([C@@H](C)[C@H]2CC[C@H]3[C@@H]4C[C@@H](O)[C@@]5(O)CC=CC(=O)[C@]5(C)[C@H]4CC[C@]23C)C1: > 100 µM
- CCOC(=O)NC(=O)c1cn(CCCCCCOC(=O)NCCCCCCNC(=O)OCCCCCCn2cc(C(=O)NC(=O)OCC)c(=O)[nH]c2=O)c(=O)[nH]c1=O: > 100 µM
- O=C(c1ccccc1)c1cccc(C(=O)c2ccccc2)c1: > 100 µM
- C=C(C)C(O)C(O)c1c(OC)ccc2ccc(=O)oc12 (configuration not stated): > 100 µM
- Nc1nc(Nc2ccc(C3CCC(N4CCOCC4)CC3)cc2)nn1-c1ccccn1 (configuration not stated): 16.4 µM
- COc1ccc(C(=O)/C=C/c2c(Cl)c3c(c(OC)c2Cl)OCC(=O)N3)cc1: 5.22 µM

* * *

Quick reference for TGI among some compounds
tested on: UO-31 renal; experiment: NCI tumour cell line growth inhibition, 48 h
measuredParameter: TGI

* N#Cc1c(-c2ccc(Cl)cc2)c2c(n(C3OC(CO)C(O)C(O)C3O)c1=S)CCC2 (centres undefined) | > 100 µM
* CC(=O)Oc1c2oc3ccc(Cl)cc3c(=O)c2c(O)c2ccsc12 | > 100 µM
* COc1ccc(/C=C2\CCCC3=C2NC(N)=NC3c2ccc(OC)c(OC)c2)cc1OC (centres undefined) | > 57.1 µM
* C/C=C(\C)C(=O)O[C@H]1C=CC(=O)O[C@@H]1CC[C@H](O)[C@H](C)O | > 67.4 µM
* COc1cc(C2C(Cl)C(=O)N2NC(=O)c2ccc(N)cc2)ccc1O (centres undefined) | > 100 µM
* CCOC(=O)C(NC(=O)CC)(Nc1cc(C)on1)C(F)(F)F (centres undefined) | > 100 µM
* O=c1oc2ccccc2cc1-c1cn2cc(Cl)ccc2n1 | 6.79 µM
* CCOC(=O)C(=Cc1cccnc1C)C(=O)OCC | 17.6 µM
* Cc1cccc(C(C)C)c1NC(=O)CC1C(=O)Nc2ccccc2S1(=O)=O (centres undefined) | 84.4 µM
